// values below are reported koff
Biological target: T1, cynomolgus monkey CD73 protein (cynomolgus monkey, UniProt A0A2K5V5U7 27-547)
T1 construct: construct not described
T1 sequence: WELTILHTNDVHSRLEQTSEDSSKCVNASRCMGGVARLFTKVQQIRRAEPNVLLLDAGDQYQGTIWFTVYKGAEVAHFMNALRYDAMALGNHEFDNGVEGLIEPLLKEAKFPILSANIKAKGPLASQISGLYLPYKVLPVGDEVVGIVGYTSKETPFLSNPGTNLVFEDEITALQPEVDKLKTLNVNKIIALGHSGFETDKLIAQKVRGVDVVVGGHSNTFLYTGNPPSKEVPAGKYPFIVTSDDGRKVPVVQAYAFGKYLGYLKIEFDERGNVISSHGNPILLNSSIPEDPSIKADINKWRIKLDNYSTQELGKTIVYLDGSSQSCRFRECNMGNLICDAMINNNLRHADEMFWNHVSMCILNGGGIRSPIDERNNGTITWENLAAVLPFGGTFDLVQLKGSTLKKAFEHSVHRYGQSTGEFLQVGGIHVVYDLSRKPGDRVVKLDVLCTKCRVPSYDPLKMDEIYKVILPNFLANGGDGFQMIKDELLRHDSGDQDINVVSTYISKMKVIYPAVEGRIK
Experiment: BLI (Fortebio), cynomolgus CD73 on HIS1K biosensors, antibody as analyte
Recorded metric: koff (s⁻¹)

>  <Binder>
Hab7C3C2.5 (antibody, human IgG1, kappa, L234A L235A, V domains shown, Humanized 7C3C2; also called Hab7C3C.5) VH: QVQLVQSGAEVKKPGASVKVSCKASGYTFTSYDINWVRQATGQGLEWIGWIYPRDGFTKYNEKFKGRVTLTVNTSISTAYMELSSLRSEDTAVYYCARKEGYRGDWYFDVWGQGTTVTVSS VL: DIQMTQSPSSLSASVGDRVTITCRASGNVHNYLAWYQQKPGKAPKLLLYNAKTLASGVPSRFSGSGSGTDYTLTISSLQPEDFATYYCQHFWSTPWTFGGGTELEIKR

>  <Recorded metric>
koff

>  <Measured result>
0.00299

$$$$
>  <Binder>
Hab7C3C2.9 (antibody, human IgG1, kappa, L234A L235A, V domains shown, Humanized 7C3C2; also called Huab7C3C.9) VH: QVQLVQSGAEVKKPGASVKVSCKASGYTFTSYDINWVRQATGQGLEWMGWIYPRDGFTKYAQKFQGRVTITVNTSISTAYMELSSLRSEDTAVYYCARKEGYRGDWYFDVWGQGTTVTVSS VL: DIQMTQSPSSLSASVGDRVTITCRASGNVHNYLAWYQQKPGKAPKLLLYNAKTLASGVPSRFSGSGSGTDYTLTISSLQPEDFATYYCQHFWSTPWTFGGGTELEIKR

>  <Recorded metric>
koff

>  <Measured result>
0.00388

$$$$
>  <Binder>
Hab1F2F9.12 (antibody, human IgG1, kappa, L234A L235A, V domains shown, Humanized 1F2F9; also called Huab1F2F9.12) VH: QVQLVQSGAEVKKPGASVKVSCKASGYTFTSYWMHWVRQAPGQRLEWMGNINPSNGGTKYNEKFQGRVTITVDTSASTAYMELSSLRSEDTAVYYCARRDYGSPSYWGQGTTVTVSS VL: DIQMTQSPSSLSASVGDRVTITCKASQDINSYLTWFQQKPGKAPKSLIYRTNILLDGVPSRFSGSGSGTDYTLTISSLQPEDFATYYCLQYHEFPVTFGGGTKLEIKR

>  <Recorded metric>
koff

>  <Measured result>
0.00152

$$$$

Measured values drawn from patent US20260152567A1 for this set.
